Entries annotated with measured residual activity
- tested_target: Ribosomal protein S6 kinase alpha-5 (Homo sapiens) (UniProt O75582)
- experimental_context: at 10 µM
Entry rule: numbers only, all in %.

Look up residual activity: `O=C1NC(=O)C(c2cn(CCCn3ccnc3)c3ccccc23)=C1Nc1ccccc1`
6

Subsequent entry: `O=c1cc(N2CCOCC2)oc2c1ccc1ccccc12`
103

Subsequent entry: `Oc1cccc(-c2nc(N3CCOCC3)c3oc4ncccc4c3n2)c1`
90

Subsequent entry: `Nc1ncnc2[nH]nc(Nc3ccc(F)cc3)c12`
97

Subsequent entry: `COc1ccc(COc2ccc(Cc3cnc(N)nc3N)cc2OC)cc1`
109

New cases:
Look up residual activity: `CCOC(=O)c1c(C)[nH]c(/C=C2\C(=O)Nc3ccccc32)c1C`
97

---

Entries annotated with measured residual activity
- tested_target: Serine/threonine-protein kinase TAO1 (Homo sapiens) (UniProt Q7L7X3)
- Sequence (Q7L7X3 whole entry): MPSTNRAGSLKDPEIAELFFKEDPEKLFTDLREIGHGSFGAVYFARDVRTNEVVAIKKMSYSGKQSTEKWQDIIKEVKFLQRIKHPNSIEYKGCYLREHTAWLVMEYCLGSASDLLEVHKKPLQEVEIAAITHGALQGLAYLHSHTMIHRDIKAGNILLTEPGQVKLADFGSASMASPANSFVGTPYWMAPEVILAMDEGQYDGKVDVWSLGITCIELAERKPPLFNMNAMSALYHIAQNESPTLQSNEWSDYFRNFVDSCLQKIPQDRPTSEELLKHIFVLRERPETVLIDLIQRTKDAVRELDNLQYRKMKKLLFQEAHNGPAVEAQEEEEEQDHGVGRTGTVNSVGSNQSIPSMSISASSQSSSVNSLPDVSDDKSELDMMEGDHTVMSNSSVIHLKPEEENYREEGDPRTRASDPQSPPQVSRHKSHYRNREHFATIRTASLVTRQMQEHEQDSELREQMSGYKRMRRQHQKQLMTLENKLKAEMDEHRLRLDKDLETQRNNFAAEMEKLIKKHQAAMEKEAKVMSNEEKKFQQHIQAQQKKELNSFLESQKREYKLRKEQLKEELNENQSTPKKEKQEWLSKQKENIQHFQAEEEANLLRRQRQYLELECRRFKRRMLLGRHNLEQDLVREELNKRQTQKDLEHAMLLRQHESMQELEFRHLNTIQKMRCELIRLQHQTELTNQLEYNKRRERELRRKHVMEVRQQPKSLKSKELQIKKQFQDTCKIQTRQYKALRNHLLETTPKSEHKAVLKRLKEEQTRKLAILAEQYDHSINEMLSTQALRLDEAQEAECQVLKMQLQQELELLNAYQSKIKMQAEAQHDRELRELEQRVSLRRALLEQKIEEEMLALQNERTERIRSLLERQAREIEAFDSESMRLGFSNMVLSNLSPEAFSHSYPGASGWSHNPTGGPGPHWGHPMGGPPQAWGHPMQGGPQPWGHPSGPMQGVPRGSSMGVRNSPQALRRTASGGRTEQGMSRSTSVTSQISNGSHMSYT
- experimental_context: at 10 µM

Provide the documented residual activity with Serine/threonine-protein kinase TAO1 (Homo sapiens) (UniProt Q7L7X3) as the system for `COc1ccc(-c2cnc3c(-c4ccsc4)cnn3c2)cc1`
97%

Subsequent entry: `O=c1cc(N2CCNCC2)oc2c(-c3ccccc3)cccc12`
85%

New cases:
Provide the documented residual activity with Serine/threonine-protein kinase TAO1 (Homo sapiens) (UniProt Q7L7X3) as the system for `O=C(c1cc2cc(O)ccc2[nH]1)c1cc2cc(O)ccc2[nH]1`
28%

Subsequent entry: `Nc1nc(Nc2ccc(S(N)(=O)=O)cc2)nn1C(=O)c1c(F)cccc1F`
4%

Subsequent entry: `O=C(c1ccccc1)c1ccc(N2CCOCC2)cc1O`
91%

Subsequent entry: CSc1nc(-c2ccc(F)cc2)c(-c2ccnc(NC(C)c3ccccc3)c2)[nH]1 (stereo unspecified)
83%

---

Entries annotated with measured residual activity
- tested_target: 3-phosphoinositide-dependent protein kinase 1 (Homo sapiens)
- experimental_context: at 1 µM
Entry rule: numbers only, all in %.

Recorded results for 3 compounds are shown here.
Provide the documented residual activity with 3-phosphoinositide-dependent protein kinase 1 (Homo sapiens) as the system for O=C(NC(NC(=S)Nc1ccc(F)c([N+](=O)[O-])c1)C(Cl)(Cl)Cl)C(c1ccccc1)c1ccccc1 (centres undefined)
103

Subsequent entry: `CCCCc1c(-c2ccc(O)cc2)[nH]c2nccnc12`
60

Subsequent entry: `O=C(Nc1nc2ccccc2n1CCN1CCOCC1)c1cccc([N+](=O)[O-])c1`
104

# next compound below
Provide the documented residual activity with 3-phosphoinositide-dependent protein kinase 1 (Homo sapiens) as the system for `CC(C)(C)n1nc(Cc2cccc3ccccc23)c2c(N)ncnc21`
108

---

- tested_target: Cyclin-dependent kinase 5/CDK5 activator 1 (Homo sapiens) (UniProt Q00535+Q15078)
- Sequence (Q00535 whole entry): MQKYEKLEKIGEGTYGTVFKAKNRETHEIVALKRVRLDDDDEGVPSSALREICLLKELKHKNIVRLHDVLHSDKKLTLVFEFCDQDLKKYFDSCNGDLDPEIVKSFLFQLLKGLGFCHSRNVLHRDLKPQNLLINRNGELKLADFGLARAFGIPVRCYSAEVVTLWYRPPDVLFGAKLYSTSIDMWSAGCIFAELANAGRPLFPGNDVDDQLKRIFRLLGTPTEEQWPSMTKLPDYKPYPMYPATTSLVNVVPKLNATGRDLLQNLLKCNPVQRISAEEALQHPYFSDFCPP
- Sequence (Q15078 99-307 partner limits assumed): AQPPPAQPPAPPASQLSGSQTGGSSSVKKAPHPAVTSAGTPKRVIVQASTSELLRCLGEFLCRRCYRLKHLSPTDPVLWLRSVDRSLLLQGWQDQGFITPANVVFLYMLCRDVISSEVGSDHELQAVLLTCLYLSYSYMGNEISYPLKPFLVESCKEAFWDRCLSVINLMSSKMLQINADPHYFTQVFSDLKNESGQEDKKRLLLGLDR
- experimental_context: at 1 µM
endpoint_label: residual activity (%)
Entry rule: numbers only, all in %.

Look up residual activity: `O=C1NC(=O)C(c2cn(CCCn3ccnc3)c3ccccc23)=C1Nc1ccccc1`
64

New cases:
Look up residual activity: `Cn1c2ccccc2c2c3c(c4c5ccccc5n(CCC#N)c4c21)CNC3=O`
5

Subsequent entry: `O=C(O)/C=C/c1cc(Br)c(Br)c(Br)c1Br`
94

Subsequent entry: `O=C(c1cc2cc(O)ccc2[nH]1)c1cc2cc(O)ccc2[nH]1`
23

Subsequent entry: `Nc1ncnc2[nH]nc(Nc3ccc(F)cc3)c12`
98

Subsequent entry: `CC(C)(C)n1nc(Cc2cccc3ccccc23)c2c(N)ncnc21`
110

---

Entries annotated with measured residual activity
- tested_target: Tyrosine-protein kinase BTK (Homo sapiens) (UniProt Q06187)
- Sequence (Q06187 whole entry): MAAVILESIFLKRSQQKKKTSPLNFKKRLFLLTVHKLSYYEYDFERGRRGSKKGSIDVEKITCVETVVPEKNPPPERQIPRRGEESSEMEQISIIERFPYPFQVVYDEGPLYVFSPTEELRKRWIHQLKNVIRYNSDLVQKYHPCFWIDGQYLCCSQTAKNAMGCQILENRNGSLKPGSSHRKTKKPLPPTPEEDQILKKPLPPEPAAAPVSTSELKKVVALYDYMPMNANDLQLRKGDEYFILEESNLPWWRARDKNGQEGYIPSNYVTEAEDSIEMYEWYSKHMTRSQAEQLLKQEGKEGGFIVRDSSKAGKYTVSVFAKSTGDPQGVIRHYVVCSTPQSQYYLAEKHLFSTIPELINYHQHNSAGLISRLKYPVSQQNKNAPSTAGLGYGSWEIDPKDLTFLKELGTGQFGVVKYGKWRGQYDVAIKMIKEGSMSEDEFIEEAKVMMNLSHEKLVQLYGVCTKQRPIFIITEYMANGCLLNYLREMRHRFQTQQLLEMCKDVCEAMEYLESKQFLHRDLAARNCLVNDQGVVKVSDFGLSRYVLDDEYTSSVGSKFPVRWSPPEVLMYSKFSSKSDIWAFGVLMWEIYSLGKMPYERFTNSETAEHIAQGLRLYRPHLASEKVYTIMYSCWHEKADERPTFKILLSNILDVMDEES
- experimental_context: at 10 µM
Entry rule: numbers only, all in %.

Recorded results for 5 compounds are shown here.
Look up residual activity: `O=C1NC(=O)C(c2c[nH]c3ccccc23)=C1c1c[nH]c2ccccc12`
67

Subsequent entry: `CCCCc1c(-c2ccc(O)cc2)[nH]c2nccnc12`
10

Subsequent entry: `O=C(Nc1nc2ccccc2n1CCN1CCOCC1)c1cccc([N+](=O)[O-])c1`
109

Subsequent entry: `CC(C)(C)n1nc(Cc2cccc3ccccc23)c2c(N)ncnc21`
3

Subsequent entry: `O=C(CCCc1ccc(-c2ccccc2F)cc1)Nc1ccc(O)cc1`
95

New cases:
Look up residual activity: `CCCCc1c(-c2ccc(OC)cc2)[nH]c2nccnc12`
4

Subsequent entry: `Nc1ncnc2c1cnn2-c1ccccc1`
99

Subsequent entry: `COc1cc2nccc(Oc3ccc(NC(=S)NC(=O)c4ccccc4C)cc3)c2cc1OC`
2

Subsequent entry: `Nc1ncnc2[nH]nc(Nc3ccc(F)cc3)c12`
34

Subsequent entry: `O=C(c1ccccc1)c1ccc(N2CCOCC2)cc1O`
116

Subsequent entry: `Cn1c2ccccc2c2c3c(c4c5ccccc5n(CCC#N)c4c21)CNC3=O`
9

---

- tested_target: Serine/threonine-protein kinase SIK1 (Homo sapiens) (UniProt P57059)
- Sequence (P57059 whole entry): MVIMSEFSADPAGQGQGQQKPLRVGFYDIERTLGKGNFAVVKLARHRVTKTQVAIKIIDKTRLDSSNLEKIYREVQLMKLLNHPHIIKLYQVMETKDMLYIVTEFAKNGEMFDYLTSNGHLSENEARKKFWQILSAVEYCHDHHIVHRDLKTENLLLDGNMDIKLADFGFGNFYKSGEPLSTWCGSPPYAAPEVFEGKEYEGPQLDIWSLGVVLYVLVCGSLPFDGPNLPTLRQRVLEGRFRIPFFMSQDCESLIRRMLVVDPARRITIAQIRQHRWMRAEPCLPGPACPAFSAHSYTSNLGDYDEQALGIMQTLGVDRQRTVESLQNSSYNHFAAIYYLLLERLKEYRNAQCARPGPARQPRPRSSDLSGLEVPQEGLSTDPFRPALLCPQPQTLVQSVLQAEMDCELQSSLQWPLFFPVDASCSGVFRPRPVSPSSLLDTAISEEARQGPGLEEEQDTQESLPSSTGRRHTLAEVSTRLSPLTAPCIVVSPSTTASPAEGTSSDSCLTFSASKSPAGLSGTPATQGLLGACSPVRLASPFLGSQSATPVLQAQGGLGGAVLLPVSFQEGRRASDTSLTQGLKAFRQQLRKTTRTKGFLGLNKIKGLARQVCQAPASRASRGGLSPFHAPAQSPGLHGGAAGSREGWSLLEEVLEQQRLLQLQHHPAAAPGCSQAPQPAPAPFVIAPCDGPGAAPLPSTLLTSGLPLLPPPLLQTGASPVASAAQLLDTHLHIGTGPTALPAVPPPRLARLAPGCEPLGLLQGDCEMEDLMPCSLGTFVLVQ
- experimental_context: at 10 µM
Entries annotated with measured residual activity
Entry rule: numbers only, all in %.

Recorded results for 2 compounds are shown here.
Look up residual activity: `NC(=O)c1cccc(-c2cc(Nc3ccc(OC(F)(F)F)cc3)ncn2)c1`
7

Subsequent entry: `COc1ccc(-c2cnc3c(-c4ccsc4)cnn3c2)cc1`
2

New cases:
Look up residual activity: `O=C1NC(=O)c2c1c1c3ccccc3[nH]c1n1cncc21`
44

Subsequent entry: `NC(=O)Nc1sc(-c2ccc(F)cc2)cc1C(N)=O`
5

Subsequent entry: `Nc1nccc(-c2c(-c3ccc(F)cc3)ncn2C2CCNCC2)n1`
54

Subsequent entry: `COc1cc2nccc(Oc3ccc(NC(=S)NC(=O)c4ccccc4C)cc3)c2cc1OC`
37

Subsequent entry: `O=C(O)/C=C/c1cc(Br)c(Br)c(Br)c1Br`
98

Subsequent entry: `O=c1cc(N2CCNCC2)oc2c(-c3ccccc3)cccc12`
8

Subsequent entry: `Cn1sc(=O)n(Cc2ccccc2)c1=O`
83

Subsequent entry: `Oc1cccc(-c2nc(N3CCOCC3)c3oc4ncccc4c3n2)c1`
-1

---

- tested_target: Protein-tyrosine kinase 2-beta (Homo sapiens)
- experimental_context: at 1 µM
endpoint_label: residual activity (%)
Entry rule: numbers only, all in %.

Look up residual activity: `NC(=O)c1cccc(-c2cc(Nc3ccc(OC(F)(F)F)cc3)ncn2)c1`
128

Subsequent entry: `Oc1cccc(-c2nc(N3CCOCC3)c3oc4ncccc4c3n2)c1`
142

Subsequent entry: `O=c1cc(N2CCOCC2)oc2c1ccc1ccccc12`
130

Subsequent entry: `Nc1nc(Nc2ccc(S(N)(=O)=O)cc2)nn1C(=O)c1c(F)cccc1F`
55

Subsequent entry: `CC(C)c1nn(-c2c(Cl)cccc2Cl)c2nc(Cc3ccc(OCCO)cc3)[nH]c(=O)c12`
109

New cases:
Look up residual activity: `O=C(Nc1ccc(Cl)cc1)c1ccccc1NCc1ccncc1`
128

---

Entries annotated with measured residual activity
- tested_target: Serine/threonine-protein kinase Nek6 (Homo sapiens) (UniProt Q9HC98)
- Sequence (Q9HC98 whole entry): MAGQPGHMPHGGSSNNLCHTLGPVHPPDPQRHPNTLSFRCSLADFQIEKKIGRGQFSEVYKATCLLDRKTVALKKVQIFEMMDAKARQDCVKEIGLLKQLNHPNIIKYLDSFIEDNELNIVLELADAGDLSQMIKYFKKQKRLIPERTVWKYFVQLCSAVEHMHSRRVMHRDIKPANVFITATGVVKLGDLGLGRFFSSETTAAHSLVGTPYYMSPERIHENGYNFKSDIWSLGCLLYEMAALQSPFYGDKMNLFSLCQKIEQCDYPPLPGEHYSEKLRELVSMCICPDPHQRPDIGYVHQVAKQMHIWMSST
- experimental_context: at 1 µM
- Description: Millipore: Percentage of residual kinase activity of NEK6 at 1uM relative to control. Control inhibitor: Phosphoric acid* at 0.3uM. Buffer: 8 mM MOPS pH 7.0, 0.2 mM EDTA
Entry rule: numbers only, all in %.

Recorded results for 3 compounds are shown here.
Look up residual activity: `O=c1c(-c2ccc(F)cc2)c(-c2ccncc2)[nH]n1-c1ccc(Cl)cc1`
101

Subsequent entry: `O=c1cc(N2CCOCC2)oc2c1ccc1ccccc12`
100

Subsequent entry: `Cn1c2ccccc2c2c3c(c4c5ccccc5n(CCC#N)c4c21)CNC3=O`
93

New cases:
Look up residual activity: `NC(=O)Nc1sc(-c2ccc(F)cc2)cc1C(N)=O`
104

Subsequent entry: `O=C(c1ccccc1)c1ccc(N2CCOCC2)cc1O`
92

Subsequent entry: `Nc1ncnc2c1cnn2-c1ccccc1`
99

Subsequent entry: `O=C1Cc2c([nH]c3ccc([N+](=O)[O-])cc23)-c2ccccc2N1`
115

Subsequent entry: `CC(C)(C)n1nc(Cc2cccc3ccccc23)c2c(N)ncnc21`
94

Subsequent entry: `O=C1NC(=O)C(c2c[nH]c3ccccc23)=C1c1c[nH]c2ccccc12`
117

Subsequent entry: `CCCC(=O)Oc1ccc2[nH]c(C(=O)c3cc4ccccc4[nH]3)cc2c1`
89

---

- tested_target: Dual specificity mitogen-activated protein kinase kinase 1 (Homo sapiens) (UniProt Q02750)
- Sequence (Q02750 whole entry): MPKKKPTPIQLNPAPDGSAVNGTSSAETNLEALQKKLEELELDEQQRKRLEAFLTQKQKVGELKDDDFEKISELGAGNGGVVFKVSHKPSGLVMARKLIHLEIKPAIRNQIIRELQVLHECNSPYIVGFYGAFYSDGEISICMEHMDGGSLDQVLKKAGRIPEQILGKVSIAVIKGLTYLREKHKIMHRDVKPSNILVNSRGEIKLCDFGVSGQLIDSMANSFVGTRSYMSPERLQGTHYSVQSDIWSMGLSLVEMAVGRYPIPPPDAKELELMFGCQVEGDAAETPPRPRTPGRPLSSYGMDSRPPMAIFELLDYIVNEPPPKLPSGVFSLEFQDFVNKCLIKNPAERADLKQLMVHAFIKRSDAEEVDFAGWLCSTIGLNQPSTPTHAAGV
- experimental_context: at 10 µM
- Description: Millipore: Percentage of residual kinase activity of MAP2K1 at 10uM relative to control. Control inhibitor: Phosphoric acid* at 0.3uM. Buffer: 50 mM Tris pH 7.5, 0.2 mM EGTA, 0.1% ?-mercaptoethanol, 0.01% Brij-35
Entries annotated with measured residual activity
Answer shape: numeric part, then the unit.

Look up residual activity: `CCCCc1c(-c2ccc(OC)cc2)[nH]c2nccnc12`
112%

Subsequent entry: `O=C1NC(=O)C(c2cn(CCCn3ccnc3)c3ccccc23)=C1Nc1ccccc1`
39%

---

- tested_target: Discoidin domain-containing receptor 2 (Homo sapiens) (UniProt Q16832)
- Sequence (Q16832 whole entry, the tested form may be a part): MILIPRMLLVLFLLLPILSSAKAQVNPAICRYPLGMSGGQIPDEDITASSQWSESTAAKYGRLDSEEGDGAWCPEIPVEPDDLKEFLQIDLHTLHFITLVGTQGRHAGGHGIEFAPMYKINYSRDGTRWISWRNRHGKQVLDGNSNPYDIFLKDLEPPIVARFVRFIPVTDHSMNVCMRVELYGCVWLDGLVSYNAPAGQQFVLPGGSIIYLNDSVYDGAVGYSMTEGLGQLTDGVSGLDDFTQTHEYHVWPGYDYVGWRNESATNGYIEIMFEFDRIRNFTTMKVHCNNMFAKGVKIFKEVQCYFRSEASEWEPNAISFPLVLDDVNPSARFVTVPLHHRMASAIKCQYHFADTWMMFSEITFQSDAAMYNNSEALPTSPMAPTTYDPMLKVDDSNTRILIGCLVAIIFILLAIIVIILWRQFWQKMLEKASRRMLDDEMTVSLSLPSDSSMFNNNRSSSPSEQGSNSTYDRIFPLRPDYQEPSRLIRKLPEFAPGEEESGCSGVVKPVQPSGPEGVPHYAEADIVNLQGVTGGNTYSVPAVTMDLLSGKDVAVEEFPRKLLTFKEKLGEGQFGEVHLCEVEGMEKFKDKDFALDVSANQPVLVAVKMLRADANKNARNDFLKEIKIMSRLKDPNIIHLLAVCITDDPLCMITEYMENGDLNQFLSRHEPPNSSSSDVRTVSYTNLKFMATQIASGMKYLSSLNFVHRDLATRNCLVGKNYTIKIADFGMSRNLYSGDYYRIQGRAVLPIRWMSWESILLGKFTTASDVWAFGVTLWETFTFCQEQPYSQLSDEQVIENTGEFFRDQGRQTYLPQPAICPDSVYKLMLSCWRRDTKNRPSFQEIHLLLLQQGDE
- experimental_context: at 10 µM
Label scheme for residual activity: lower than 90% is not satisfied, 90% and above is satisfied.

Completed entries (count: 3):
Kindly determine if residual activity recorded for `O=C(c1ccccc1)c1ccc(N2CCOCC2)cc1O` is above or exactly 90%.
satisfied

Subsequent entry: `O=C(O)/C=C/c1cc(Br)c(Br)c(Br)c1Br`
satisfied

Subsequent entry: `O=C(Nc1nc2ccccc2n1CCN1CCOCC1)c1cccc([N+](=O)[O-])c1`
satisfied

New cases:
Kindly determine if residual activity recorded for `Nc1ncnc2c1c(-c1ccc(Oc3ccccc3)cc1)cn2C1CCCC1` is above or exactly 90%.
not satisfied

Subsequent entry: `CC(C)(C)n1nc(Cc2cccc3ccccc23)c2c(N)ncnc21`
not satisfied
